experiment: chemical genetic growth profiling, strain panel (AID 1159580);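 further: tested at 20 µM; growth read once vehicle control cultures reached saturation at 30 °C; 1 = growth at the plate median or of vehicle wells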; conditions: S. cerevisiae deletion strains, growth OD, locus YML016C, strain PPZ1, stronger effect = lower value
Screen size: about 5,500 compounds; about 2,000 (36%) were called active. Inconclusive results (about 18%) are left out. The list shows a part of the results.
VALUE KIND: normalized growth
The response must contain the number and no unit.

Field: example entries. Status: answers known.
>>> value_measured("COP(=O)(NC(C)=O)SC (configuration not stated)")
1.01
>>> value_measured("CC(C)[C@@H]1CC[C@@H](C)CC1=O")
1.01
>>> value_measured("C[C@]12[C@H](O)CC3C(CC[C@@H]4C[C@@H](O)CC[C@]34C)[C@@]1(O)CC[C@@H]2C1=CC(=O)OC1 (some centres not stated)")
1.02
>>> value_measured("COc1ccc(NS(=O)(=O)c2ccc(N)cc2)nn1")
1.02

### Prompt Field request: normalized growth | item: Cn1c(=O)[nH]c2nc[nH]c2c1=O
### Response 1

### Prompt Field request: normalized growth | item: CC(C)c1cc2c(c(O)c1O)[C@@]1(C(=O)O)CCCC(C)(C)C1CC2 (some centres not stated)
### Response 0.994

### Prompt Field request: normalized growth | item: C[C@H]1C(=O)CCC2[C@]3(C)CC[C@@]4(C)C5CC(C)(C)CC[C@]5(C)CC[C@]4(C)C3CC[C@@]21C (some centres not stated)
### Response 1.01

### Prompt Field request: normalized growth | item: COc1cc(O)ccc1C(C)=O
### Response 0.989

### Prompt Field request: normalized growth | item: Cn1c(=O)c2c(ncn2CCO)n(C)c1=O
### Response 1

### Prompt Field request: normalized growth | item: CCCN(CCC)c1c([N+](=O)[O-])cc(C(F)(F)F)cc1[N+](=O)[O-]
### Response 0.982

### Prompt Field request: normalized growth | item: CC(=O)NS(=O)(=O)c1ccc(N)cc1
### Response 0.99

* * *

assay: chemical genetic growth profiling, strain panel (AID 1159580); conditions: S. cerevisiae deletion strains, growth OD, locus YLR262C, strain YPT6
In all, about 5,500 compounds went through this assay and about 2,000 (36%) were called active. Inconclusive results (about 18%) are left out. Cut-off read from the data, not from the text of the source: active = normalized growth mostly below about 0.91 (no sharp cut-off); inconclusive = no clear call, values can overlap the other calls; inactive = mostly above about 0.92. Some of the results follow.
Field 'call' accepts 1 for active, 0 for inactive

Below are worked cases with known answers.
>>> label("NS(=O)(=O)c1cc2c(cc1Cl)NCNS2(=O)=O")
0
>>> label("CC(=O)CCCCn1c(=O)c2c(ncn2C)n(C)c1=O")
0
>>> label("Cn1c(=O)c2c(ncn2C)n(C)c1=O")
0
>>> label("Cn1c(=O)[nH]c2ncn(C)c2c1=O")
0

### Prompt What is the recorded call for this compound in the test? COc1cc(OC)c2c(OC)c(-c3ccc4c(c3)OCO4)c(=O)oc2c1
### Response 0

### Prompt What is the recorded call for this compound in the test? COc1cc(O)c2c(c1)C(=O)c1cc(C)cc(O)c1C2=O
### Response 0

### Prompt What is the recorded call for this compound in the test? COc1cccc(C2SCc3cc(C)c(C)cc3CS2)c1O
### Response 0

### Prompt What is the recorded call for this compound in the test? CCCc1ncc(C[n+]2ccccc2C)c(N)n1
### Response 0

### Prompt What is the recorded call for this compound in the test? COC1=CC23CCCN2CCc2cc4c(cc2C3C1O)OCO4 (stereo not given)
### Response 0

### Prompt What is the recorded call for this compound in the test? COP(=O)(NC(C)=O)SC (stereo not given)
### Response 0

### Prompt What is the recorded call for this compound in the test? Cc1ccc(O)c(C(CCN(C(C)C)C(C)C)c2ccccc2)c1 (stereo not given)
### Response 0

### Prompt What is the recorded call for this compound in the test? COc1ccc(-c2c(O)c3c(OC)c4c(cc3oc2=O)OC(C)(C)C=C4)cc1
### Response 0

### Prompt What is the recorded call for this compound in the test? COc1cc([C@@H]2c3cc4c(cc3[C@H](O)[C@H]3COC(=O)[C@H]23)OCO4)cc(OC)c1OC
### Response 0

### Prompt What is the recorded call for this compound in the test? NC(=O)C1=C(O)C(=O)N(C2CCCCC2)C1
### Response 0

### Prompt What is the recorded call for this compound in the test? Cc1cc(O)c2c(c1)C(=O)c1cc(O)cc(O)c1C2=O
### Response 1

* * *

assay: chemical genetic growth profiling, strain panel (AID 1159580); conditions: S. cerevisiae deletion strains, growth OD, locus YAL026C, strain drs2
The whole screen tested about 5,500 compounds, of which about 2,000 (36%) were called active. Another 18% or so got no clear call; they are omitted. Cut-off read from the data, not from the text of the source: active = normalized growth mostly below about 0.91 (no sharp cut-off); inconclusive = no clear call, values can overlap the other calls; inactive = mostly above about 0.92. This is one part of the list.
Field 'call' accepts active, inactive

>>> label("COC1=CC23CCCN2CCc2cc4c(cc2C3C1O)OCO4 (stereo unspecified)")
"inactive"
>>> label("O=C(/C=C/c1ccccc1)c1ccc(O[C@@H]2O[C@H](CO)[C@@H](O)[C@H](O)[C@H]2O)cc1O")
"inactive"
>>> label("CC1=C(C(=O)O)N2C(=O)[C@@H](NC(=O)[C@@H](N)c3ccc(O)cc3)[C@H]2SC1")
"inactive"
>>> label("CCCCCC/C=C\\CCCCCCCc1cccc(O)c1C(=O)O")
"inactive"
>>> label("O=C(/C=C/c1ccc(O)cc1)c1ccccc1O")
"active"
>>> label("OC[C@H]1O[C@@H](Oc2ccc(O)cc2)[C@H](O)[C@@H](O)[C@@H]1O")
"inactive"

### Prompt What is the recorded call for this compound in the test? CCC1(C2=NCCN2)Cc2ccccc2O1 (stereo unspecified)
### Response inactive

### Prompt What is the recorded call for this compound in the test? ClC1C(Cl)C(Cl)C(Cl)C(Cl)C1Cl (stereo unspecified)
### Response inactive

### Prompt What is the recorded call for this compound in the test? CCC[C@@H]1C[C@@H](C(=O)N[C@H]([C@H]2O[C@H](SC)[C@H](O)[C@@H](O)[C@H]2O)[C@H](C)O)N(C)C1
### Response inactive

### Prompt What is the recorded call for this compound in the test? COc1ccc(NS(=O)(=O)c2ccc(N)cc2)nn1
### Response inactive

### Prompt What is the recorded call for this compound in the test? CC(=O)OCC1=C(C(=O)O)N2C(=O)[C@@H](NC(=O)CSc3ccncc3)[C@H]2SC1
### Response inactive

* * *

assay: chemical genetic growth profiling, strain panel (AID 1159580);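 further: tested at 20 µM; growth read once vehicle control cultures reached saturation at 30 °C; 1 = growth at the plate median or of vehicle wells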; conditions: S. cerevisiae deletion strains, growth OD, locus YAL040C, strain CLN3
The campaign covered roughly 5,500 compounds. About 2,000 (36%) were called active. Roughly 18% stayed inconclusive and do not appear here. Rule as the data show it: active = normalized growth mostly below about 0.91 (no sharp cut-off); inconclusive = no clear call, values can overlap the other calls; inactive = mostly above about 0.92. The list shows a part of the results.
Field 'call' accepts class 1 for active, class 0 for inactive

Below are worked cases with known answers.
>>> label("O=C(O)c1cccnc1C(=O)O")
"class 0"
>>> label("CCC1(C2=NCCN2)Cc2ccccc2O1 (stereo not given)")
"class 0"
>>> label("Cn1cc(C(=O)OCC2CCN(CCNS(C)(=O)=O)CC2)c2ccccc21")
"class 0"
>>> label("O=C(c1ccccc1)c1ccc2n1CCC2C(=O)O (stereo not given)")
"class 0"
>>> label("Nc1nc(SCc2ccc([N+](=O)[O-])cc2)c2ncn([C@@H]3O[C@H](CO)[C@H](O)C3O)c2n1 (stereo not given in full)")
"class 0"

### Prompt What is the recorded call for this compound in the test? CC(C)(C)c1ccc(S(=O)(=O)/C=C/C#N)cc1
### Response class 1

* * *

assay: chemical genetic growth profiling, strain panel (AID 1159580);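 further: tested at 20 µM; growth read once vehicle control cultures reached saturation at 30 °C; 1 = growth at the plate median or of vehicle wells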; settings: S. cerevisiae deletion strains, growth OD, locus YLR268W, strain sec22, stronger effect = lower value
About 2,000 (36%) of roughly 5,500 compounds were called active. Inconclusive results (about 18%) are left out. The list shows a part of the results.
VALUE KIND: normalized growth
The response must contain the number and no unit.

Field: example entries. Status: answers known.
>>> value_measured("O=C(c1ccccc1)c1ccc2n1CCC2C(=O)O (stereo not given)")
0.97
>>> value_measured("COc1cc(O)c2c(c1)C(=O)c1cc(C)cc(O)c1C2=O")
0.924

### Prompt Field request: normalized growth | item: C[N+]12CCC(CC1)C(OC(=O)C(O)(c1ccccc1)c1ccccc1)C2 (stereo not given)
### Response 0.906

### Prompt Field request: normalized growth | item: COc1cc2c(cc1OC)C(C)NCC2 (stereo not given)
### Response 0.987

### Prompt Field request: normalized growth | item: Cc1c(NC(C)C)c(=O)n(-c2ccccc2)n1C
### Response 0.925

* * *

assay: chemical genetic growth profiling, strain panel (AID 1159580);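 further: tested at 20 µM; growth read once vehicle control cultures reached saturation at 30 °C; 1 = growth at the plate median or of vehicle wells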; conditions: S. cerevisiae deletion strains, growth OD, locus YHR027C, strain rpn1
About 2,000 (36%) of roughly 5,500 compounds were called active. Not shown: some 18% with an inconclusive outcome. No stated cut-off is given here; in the data, active means normalized growth mostly below about 0.91 (no sharp cut-off); inconclusive means no clear call, values can overlap the other calls; inactive means mostly above about 0.92. Some of the results follow.
Field 'call' accepts active, inactive

>>> label("NNCc1ccccc1")
"inactive"
>>> label("COc1cc2c(cc1OC)C(C)NCC2 (centres undefined)")
"inactive"
>>> label("COCC1=C(C(=O)OC(C)OC(=O)OC(C)C)N2C(=O)[C@@H](NC(=O)/C(=N\\OC)c3csc(N)n3)[C@H]2SC1 (some centres undefined)")
"inactive"
>>> label("O=C(O)CC[N+](=O)[O-]")
"inactive"
>>> label("CN1CCC[C@H]1c1cccnc1")
"inactive"

### Prompt What is the recorded call for this compound in the test? CC(C)N1C(=O)c2ccccc2NS1(=O)=O
### Response inactive

### Prompt What is the recorded call for this compound in the test? C[C@H]1C(=O)CCC2[C@]3(C)CC[C@@]4(C)C5CC(C)(C)CC[C@]5(C)CC[C@]4(C)C3CC[C@@]21C (some centres undefined)
### Response inactive

### Prompt What is the recorded call for this compound in the test? COc1ccc(-c2c(O)c3c(OC)c4c(cc3oc2=O)OC(C)(C)C=C4)cc1
### Response inactive
